Data credit: patent US20210032312A1

Target: T1, cynomolgus monkey CD8 alpha on primary cynomolgus CD8+ T cells (cynomolgus monkey, UniProt P01732 23-235 (human entry))
T1 construct: also called Cyno CD8alpha; cyno CD8A
T1 sequence (P01732 other isoform, or with tags, fused parts or gaps limits assumed): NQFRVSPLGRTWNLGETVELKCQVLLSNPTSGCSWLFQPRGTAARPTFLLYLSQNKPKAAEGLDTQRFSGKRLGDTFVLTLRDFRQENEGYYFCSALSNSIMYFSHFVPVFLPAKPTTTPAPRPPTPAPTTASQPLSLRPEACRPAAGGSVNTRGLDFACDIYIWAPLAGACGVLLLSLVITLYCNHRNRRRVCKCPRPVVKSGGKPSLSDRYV
Assay: flow cytometry, cyno CD8+ T cells
Readout name: Cyno T-cell Binding 0.2 uM (MFI)

Examples from the recorded data:
{"Binder": "P283FR9P1366_A1 (designed binder, FN3 domain) LPAPKNLVVSRVTEDSARLSWTAPDAAFDSFWITYPEWPVPGEAIVLTVPGSERSYDLTGLKPGTEYAVFIWGVKGGDASEPLSAIFTT", "Output unit": "MFI", "Cyno T-cell Binding 0.2 uM (MFI)": 1650}
{"Binder": "P283HR7P1368_F10 (designed binder, FN3 domain) LPAPKNLVVSRVTEDSARLSWTAPDAAFDSFYIPYRESEFRGEAIALPVPGSERSYDLTGLKPGTKYRVIIIGVKGGEFSQPLGAIFTT", "Output unit": "MFI", "Cyno T-cell Binding 0.2 uM (MFI)": 1020}
{"Binder": "P283HR7P1368_D2 (designed binder, FN3 domain) LPAPKNLVVSRVTEDSARLSWTAPDAAFNSFGIGYAEPAVTGEAISLSVPGSERSYDLTGLKPGTEYWVVIIGVKGGINSYPLGASFTT", "Output unit": "MFI", "Cyno T-cell Binding 0.2 uM (MFI)": 950}

P: P283GR7P1367_H8 (designed binder, FN3 domain) LPAPKNLVVSRVTEDSARLSWTAPDAAFDSFSINYWEEDPAGEAIVLTVPGSERSYDLTGLKPGTEYRVLIGGVKGGHGSLPLSAIFTT
Q: P283FR9P1366_E11 (designed binder, FN3 domain) LPAPKNLVVSRVTEDSARLSWTAPDAAFDSFDIAYPEWPVPGEAIVLTVPGSERSYDLTGLKPGTEYWVIIKGVKGGNISWPLSAIFTT
Incoming: For this pair, P and Q , which shows a numerically higher Cyno T-cell Binding 0.2 uM (MFI)? Please identify the chosen entry by its label.
Outgoing: Q
